assay: Growth inhibition of human UACC62 cells after 48 hrs by sulforhodamine B assay; format: functional; settings: UACC-62, 48 h
MEASURE NAME: GI50 (µM)
Please respond with the number in µM and leave the unit unwritten.

1. CC1=CC[C@H](C(C)(C)NC(=S)N/N=C/c2ccc(C)cc2)CC1 | 75.9

The compound listed as "CC1=CC[C@H](C(C)(C)NC(=S)N/N=C/c2cccc(Cl)c2)CC1" shows GI50 equal to 9

Memo: "CC1=CC[C@H](C(C)(C)NC(=S)N/N=C/c2ccc(Cl)cc2)CC1" , reported GI50: 11.2

The value of GI50 measured for the compound "CC1=CC[C@H](C(C)(C)NC(=S)N/N=C/c2cccs2)CC1" turned out to be 2.6

get_value(item= "COc1ccc(/C(C)=N/NC(=S)NC(C)(C)[C@H]2CC=C(C)CC2)cc1" , readout=GI50) returns 95.3
